# System Name: T1, human E-selectin, cell-surface expressed (human, UniProt P16581 22-610)
# T1 sequence: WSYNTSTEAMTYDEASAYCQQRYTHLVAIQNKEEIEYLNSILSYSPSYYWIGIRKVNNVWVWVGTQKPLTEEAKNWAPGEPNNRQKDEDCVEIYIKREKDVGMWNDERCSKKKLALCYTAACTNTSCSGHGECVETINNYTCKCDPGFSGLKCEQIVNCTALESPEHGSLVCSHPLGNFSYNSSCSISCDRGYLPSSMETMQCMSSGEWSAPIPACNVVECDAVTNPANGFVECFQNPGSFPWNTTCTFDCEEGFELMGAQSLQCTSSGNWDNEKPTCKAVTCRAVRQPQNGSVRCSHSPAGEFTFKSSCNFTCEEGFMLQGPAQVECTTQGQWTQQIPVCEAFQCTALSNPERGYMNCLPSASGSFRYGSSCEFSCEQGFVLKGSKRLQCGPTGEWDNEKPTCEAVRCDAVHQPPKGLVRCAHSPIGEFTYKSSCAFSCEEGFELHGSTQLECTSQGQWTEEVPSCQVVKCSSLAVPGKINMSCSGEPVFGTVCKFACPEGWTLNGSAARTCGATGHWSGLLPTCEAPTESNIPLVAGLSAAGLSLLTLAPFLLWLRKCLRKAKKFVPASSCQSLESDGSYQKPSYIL
# Assay Details: cell-based or functional assay
Measure: static neutralization, HL-60 Cell adhesion CHO-Human E-selectin cells IC50 (nM)

The following binders have reported results that may help.
{"Binder": "anti-E-selectin antibody 0159 chimera (antibody, human IgG1, kappa, V domains shown, rat VH/VL on effector-null human IgG1 and human kappa) VH: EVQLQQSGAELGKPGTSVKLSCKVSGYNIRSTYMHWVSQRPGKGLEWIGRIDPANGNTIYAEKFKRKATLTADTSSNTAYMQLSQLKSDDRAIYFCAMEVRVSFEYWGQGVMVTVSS VL: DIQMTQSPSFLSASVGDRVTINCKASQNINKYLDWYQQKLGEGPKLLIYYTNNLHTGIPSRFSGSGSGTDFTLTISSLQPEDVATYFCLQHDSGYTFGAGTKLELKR", "Result": "> 50 % inhibition at 49.4 nM"}
{"Binder": "anti-E-selectin antibody 0158 chimera (antibody, human IgG1, kappa, V domains shown, rat VH/VL on effector-null human IgG1 and human kappa) VH: QVQLKESGPGLVQPSETLSLTCTVSGFSISTYNVHWLRQPPGKGLEWMGMMWSGGSPDYNSALKSRLSISRDTSKNQVFLKMNSLQSEDTTTYYCARWGGGFDYWGQGVMVTVSS VL: DIVLTQSPTTLSVTPGETVSLSCRASHSIGTNLHWYQQKTNESPRLLIKFTSQSISGIPSRFSASGSGTDFTLNINNVEFDDVSSYFCQQTQSWPLTFGSGTKLEIKR", "Result": "> 50 % inhibition at 16.5 nM"}
{"Binder": "anti-E-selectin antibody 0164 chimera (antibody, human IgG1, kappa, V domains shown, rat VH/VL on effector-null human IgG1 and human kappa) VH: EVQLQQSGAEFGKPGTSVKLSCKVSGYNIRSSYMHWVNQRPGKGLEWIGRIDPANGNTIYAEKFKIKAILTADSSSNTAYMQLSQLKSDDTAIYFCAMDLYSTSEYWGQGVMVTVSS VL: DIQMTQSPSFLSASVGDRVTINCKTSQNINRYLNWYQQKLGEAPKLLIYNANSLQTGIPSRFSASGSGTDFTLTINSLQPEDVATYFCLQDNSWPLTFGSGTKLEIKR", "Result": "> 50 % inhibition at 16.5 nM"}
{"Binder": "anti-E-selectin antibody 0180 chimera (antibody, human IgG1, kappa, V domains shown, rat VH/VL on effector-null human IgG1 and human kappa) VH: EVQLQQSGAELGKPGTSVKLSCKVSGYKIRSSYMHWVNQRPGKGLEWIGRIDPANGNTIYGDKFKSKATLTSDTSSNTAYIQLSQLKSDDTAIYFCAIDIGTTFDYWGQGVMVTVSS VL: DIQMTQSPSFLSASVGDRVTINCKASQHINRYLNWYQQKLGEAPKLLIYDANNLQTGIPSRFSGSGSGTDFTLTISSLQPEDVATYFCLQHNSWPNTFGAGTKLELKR", "Result": "> 50 % inhibition at 444 nM"}

Field: next binder
Task: Item under review: anti-E-selectin antibody 0170 chimera (antibody, human IgG1, kappa, V domains shown, rat VH/VL on effector-null human IgG1 and human kappa) VH: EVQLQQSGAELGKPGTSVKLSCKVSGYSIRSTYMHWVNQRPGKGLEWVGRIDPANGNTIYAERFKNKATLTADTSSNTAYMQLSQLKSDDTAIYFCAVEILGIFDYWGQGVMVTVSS VL: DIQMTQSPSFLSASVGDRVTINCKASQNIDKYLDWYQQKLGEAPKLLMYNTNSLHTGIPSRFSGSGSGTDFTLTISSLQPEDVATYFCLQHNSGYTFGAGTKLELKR . Reported static neutralization, HL-60 Cell adhesion CHO-Human E-selectin cells IC50 (nM)?
Result: > 50 % inhibition at 444 nM
